# Tyrosine-protein kinase Lck (Homo sapiens, UniProt P06239): pIC50 values follow
# Sequence (P06239 whole entry): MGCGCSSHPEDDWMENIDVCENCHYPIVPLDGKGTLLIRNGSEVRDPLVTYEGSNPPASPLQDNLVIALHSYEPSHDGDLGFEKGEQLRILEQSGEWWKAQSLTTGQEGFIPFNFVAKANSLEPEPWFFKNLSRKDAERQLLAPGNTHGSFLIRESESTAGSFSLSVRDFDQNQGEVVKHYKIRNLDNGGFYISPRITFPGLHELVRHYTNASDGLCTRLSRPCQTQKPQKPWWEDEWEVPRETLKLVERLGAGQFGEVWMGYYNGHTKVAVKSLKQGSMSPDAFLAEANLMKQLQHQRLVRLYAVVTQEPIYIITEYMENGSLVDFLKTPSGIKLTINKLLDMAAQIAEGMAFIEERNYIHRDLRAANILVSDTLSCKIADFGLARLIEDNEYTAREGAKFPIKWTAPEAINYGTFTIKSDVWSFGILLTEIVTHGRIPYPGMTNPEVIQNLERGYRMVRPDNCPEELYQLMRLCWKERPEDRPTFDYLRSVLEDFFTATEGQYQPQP
pIC50: −log10 of the molar value.
PROPERTY: pIC50

> print(dat)
                               query.smiles                             target.system  value.qualifier  measurement
1  O=C(c1ccc(Nc2nc(C3CC3)cn3c(-c4cn[nH]c4)cnc23)cc1Cl)N1CCNC2(CC2)C1  Tyrosine-protein kinase Lck (Homo sapiens, UniProt P06239)                =         6.02
2  CC1(C)CN(C(=O)c2ccc(Nc3nc(C4CC4)cn4c(-c5cn[nH]c5)cnc34)c(F)c2)CCN1  Tyrosine-protein kinase Lck (Homo sapiens, UniProt P06239)                <         4.70
3  COC1CCN(C(=O)c2ccc(Nc3nc(C)cn4c(-c5cn[nH]c5)cnc34)cc2Cl)CC1  Tyrosine-protein kinase Lck (Homo sapiens, UniProt P06239)                =         8.00
4  Cc1cn2c(-c3cn[nH]c3)cnc2c(Nc2ccc(C(=O)N3CCOCC3)c(Cl)c2)n1  Tyrosine-protein kinase Lck (Homo sapiens, UniProt P06239)                =         5.70
5  Cc1cn2c(-c3cn[nH]c3)cnc2c(Nc2ccc(C(=O)N3CCOCC3)cc2F)n1  Tyrosine-protein kinase Lck (Homo sapiens, UniProt P06239)                <         4.70
